Reference for the values: patent US20260217804A1

Measured on: T1, H2L7
T1 construct: Humanized IgG1/kappa, expressed in CHO cells; also called humanized Pyr12.2 variant H2L7; VH2/VL7
Test: inhibition ELISA as in Example 6: antigen in solution titrated, antibody fixed, AβpE3-40 coat
pIC50: −log10 of the molar value.
Reported endpoint: pIC50

pIC50 lookup needed for EVHHQKLVFFAEDVGSNK (peptide, UniProt P05067 682-699, looked up, pyroglutamate (pE) at position 11, the N-terminus, range 11-28; The range counts on Aβ numbering, not on APP) [AβpE11-28 monomer] , thanks.
< 4.90
